- System tested: glucagon receptor (GCGR), primary cAMP assay cell line (human, UniProt P47871 26-477)
- Sequence (P47871 26-477): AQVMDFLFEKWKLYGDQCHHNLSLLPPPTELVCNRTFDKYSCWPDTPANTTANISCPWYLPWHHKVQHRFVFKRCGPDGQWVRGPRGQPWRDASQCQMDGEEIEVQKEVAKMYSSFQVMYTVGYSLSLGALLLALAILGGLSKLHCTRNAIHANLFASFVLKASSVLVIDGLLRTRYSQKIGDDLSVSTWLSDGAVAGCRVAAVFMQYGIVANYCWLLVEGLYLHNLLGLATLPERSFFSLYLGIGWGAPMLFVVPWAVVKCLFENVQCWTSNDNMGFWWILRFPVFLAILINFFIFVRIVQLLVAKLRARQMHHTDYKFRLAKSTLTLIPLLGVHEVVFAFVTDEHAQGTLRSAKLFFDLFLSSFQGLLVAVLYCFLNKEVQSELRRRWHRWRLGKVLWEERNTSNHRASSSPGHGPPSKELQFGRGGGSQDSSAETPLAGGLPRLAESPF
- Assay text: cell-based or functional assay
Starred links: 1 amine or outer side, 2 acyl side, 3 side chain; linkers in the order of their positions; H or OH if unused. Non-standard residues stand in square brackets, D forms with d. Groups on a side chain read outwards from the residue. Primed or numbered codes have the meaning given here. No end group written: not given here. *: point of attachment. γGlu = O=C(O)[C@H](CCC(=O)[*:2])N[*:1]; αMeF = C[C@](N)(Cc1ccccc1)C(=O)O; αMeK = C[C@](N)(CCCCN)C(=O)O; Lauroyl = CCCCCCCCCCCC(=O)*; αMeS = C[C@](N)(CO)C(=O)O; PEG2′ = not defined here; Aib = CC(C)(N)C(=O)O
Listing: cAMP Primary assay EC50, n1 of selected binders
Report the figure in nM without appending any unit label.

H[Aib]EGS[αMeF]TSDV[αMeS]SYK([PEG2′-PEG2′-γGlu-Lauroyl])EK([PEG2′-PEG2′-γGlu-Lauroyl])EAA[αMeK]EFIK([PEG2′-PEG2′-γGlu-Lauroyl])FVVEGG-NH2 [SEQ ID NO: 451]: 19.7

Attention now shifts to the item below.
Challenge: Form field: reported cAMP Primary assay EC50, n1 of H[Aib]EGS[αMeF]TSDV[αMeS]SK([PEG2′-PEG2′-γGlu-Lauroyl])LEK([PEG2′-PEG2′-γGlu-Lauroyl])EAA[αMeK]EFIK([PEG2′-PEG2′-γGlu-Lauroyl])FVVEGG-NH2 [SEQ ID NO: 447]
Response given: 19.7
